# System: E. coli DH5α
# protocolText: Antibacterial activity: MIC and growth curve against E. coli DH5α in 96-well plate
# Assay type: cell-based
# settings: minimal inhibitory concentration against E. coli DH5α; 96-well plate, 5×10^5 CFU/mL, 37° C., judged after 8 h
Provide the recorded MIC for the entries that follow.
// units = µg/mL; emit number, no label

Name the recorded MIC for PRT1281 (DLCLSSPCQNQGTCHNDPLEVYRCACPSGYKGRDCE; listed as Homo sapiens) .
50

Name the recorded MIC for PRT111 (DLDECASRSKSGEEDPQPQCQHLCHNYVGGYFCSCRPGYELQEDTHSCQ; listed as Homo sapiens) .
12.5

Name the recorded MIC for PRT819 (YGHNCSQACACFNGASCDPVHGQCHCAPGWMGPSCL; listed as Homo sapiens) .
12.5

Name the recorded MIC for PRT484 (RCEDLDGVVCGGHGTCSCGRCVCERGWFGKLCQ; listed as Homo sapiens) .
25
